Data provenance is PubChem BioAssay AID179.

Entries and their IC50 values follow.
tested on: CEM cells HIV-1 protection, formazan growth assay; test: NCI AIDS Antiviral Assay; conditions: measured here: growth of uninfected CEM cells

compound	IC50
CCOC(=O)C(CCC1=NC(C)(C)CC(C)O1)C(=O)OCC (stereo not drawn)	> 200 µM
Cc1c2c(cc3c1OCN(Cc1ccccc1)C3)CN(Cc1ccccc1)CO2	30.9 µM
CC1SCc2nc3ccccc3n21 (stereo not drawn)	> 200 µM

* * *

Tested on: CEM cells HIV-1 protection, formazan growth assay
Experiment: NCI AIDS Antiviral Assay
Details: measured here: growth of uninfected CEM cells
Procedure: The ability of compounds to protect human CEM cells from HIV-1 infection is measured as a screen for new compounds capable of inhibiting the HIV virus. Five concentrations of drug were tested on uninfected and infected cells and cell growth was measured using a soluble formazan assay. […] Compounds that provided at least 50% protection were retested. Compounds that provided at least 50% protection on retest were listed as moderately active. […]
The compounds listed here are annotated with their IC50.

compound	unitsLabel	limitQualifier	IC50
O=S1CCS(=O)CCS(=O)CC1 (configuration not stated)	µM	>	16.6
Cc1ccc(/C=C/C(=O)c2sc(-n3nc(-c4ccccc4)cc3-c3ccccc3)nc2C)cc1	µM	>	11.2
CCOC(=O)c1[nH]c2c(cc(C=O)c3ccccc32)c1C	µM	=	60.3
CC(Oc1ccc(OCC2CCCCC2)cc1)C(=O)NCc1ccco1 (configuration not stated)	µM	>	28.2
C1CSCC2(COC2)CSCCSCC2(COC2)CS1	µM	>	14.8
O=C(N/N=C/c1cc(S(=O)(=O)O)c2cccnc2c1O)C(=O)N/N=C/c1cc(S(=O)(=O)O)c2cccnc2c1O	µM	=	41.7
COc1cc(C=C2N=C(c3ccccc3)N(n3c(-c4ccccc4)nc4ccccc4c3=O)C2=O)cc(OC)c1OC	µM	=	30.9
CN1C(c2ccccc2)(c2ccccc2)c2ccccc2S1(=O)=O	µM	=	50.1
O=C(Nc1ccccc1F)c1c(O)nc2sccn2c1=O	µM	=	51.3
Cc1nc2c3c(ncn2n1)Oc1c(c(-c2ccccc2)nn1-c1ccccc1)C3c1ccc(Cl)cc1 (configuration not stated)	µM	>	200
O=C1CCC(NC(=O)c2ccccc2)C(=O)N1 (configuration not stated)	µM	>	200
CCCCCCCC(=O)OC[C@H](C[As](=O)(O)O)OC(=O)CCCCCCC	µM	=	7.76
CCC[CH2][Sn]([CH2]CCC)([O]C(=O)c1cccc(F)c1)[O]C(=O)c1cccc(F)c1	µM	=	6.61
CCOC(=O)C1(C#N)C(c2ccccc2)CC(O)(c2ccc(Cl)cc2)C(C(=O)c2ccc(Cl)cc2)C1c1ccccc1 (configuration not stated)	µM	>	12
O=C1CN2Cc3cc(N4CCOCC4)ccc3N=C2N1	µM	=	40.7
O=c1[nH][nH]c(=O)c2c1nc(SCc1ccc(Br)cc1)n2Cc1ccccc1	µM	>	214
O=C(O)CCC(O)=C1S(=O)(=O)OCCOS1(=O)=O	µM	=	331
O=C(CC(=O)n1nc(-c2ccccc2)c(N=Nc2ccccc2C(=O)O)c1-c1ccccc1)Nc1ccc(Cl)cc1	µM	=	77.6
CN(C)c1ccc2c(c1)-c1cc(N(C)C)ccc1C2=CC=C(C#N)C#N	µM	>	4.27
Cc1ccccc1C=C1C(=O)NC(=O)NC1=O	µM	>	407
COC(=O)CCCC=C(c1cc(F)c(OC)c(C(=O)OC)c1)c1cc(F)c(OC)c(C(=O)OC)c1	µM	=	64.6
O=C(Nc1ccc2oc(=O)c(C(=O)O)cc2c1)Oc1ccccc1	µM	>	282
Cc1oc2c(C)c3oc(=O)cc(C)c3cc2c1CN	µM	=	7.08
Cc1ccc(-c2c(C#N)c(-c3ccccc3)c(C#N)c(=O)n2NS(=O)(=O)c2ccccc2)cc1	µM	=	69.2
CCOC(=O)NC(NC1=NCCS1)(C(=O)OCC)C(F)(F)F (configuration not stated)	µM	=	191
CC1(C)C(=NNC(=O)C[N+](C)(C)C)C(C)(C)C1=NNC(=O)C[N+](C)(C)C	µM	>	28.8
O=C(NNC(=S)NCc1ccccc1)c1csc(NC(=S)NC2CCCCC2)n1	µM	=	57.5
